test: inhibitors of Bluetongue virus cytopathic effect, confirmation, arbovirus, BSR cells (AID 1250); settings: BSR cells, Bluetongue virus CPE, ATP luminescence, 72 h; at 20 µM (top of the series)
PARAMETER_MEASURED: CPE inhibition (%)
Field: numeric (%). Do not append units.

Example results:
O=[N+]([O-])c1cc(/C=N\Nc2nc(-c3ccccc3)cs2)ccc1O
26.1
Cc1ccc2nc(NC(=O)C3CCN(S(=O)(=O)c4cnc[nH]4)CC3)sc2c1
14
O=C(Nc1ccccc1C(=O)O)c1ccc2ccccc2n1
16.2
N=C1/C(=C/c2ccc(-c3cccc(C(=O)O)c3)o2)C(=O)N=C2SC=C(c3ccccc3)N12
16.8
COCCn1c(SCC(=O)Nc2cc(Cl)ccc2OC)nc2c(c1=O)SC(C)C2 (configuration not stated)
17.7
CCC1=NN2C(=N)/C(=C\c3cccn3-c3ccc(C)cc3C)C(=O)N=C2S1
27.2
Fc1ccccc1N1CCN(Cc2nc(-c3ccc(Cl)cc3Cl)no2)CC1
19.9
COc1ccc2c(c1)c1nc3ccccc3nc1n2Cc1ccc(OC)c(OC)c1
15.8

In the following, a different compound is considered.
Consider the compound shown here: COc1cc(C2N=C(c3ccccc3)NO2)cc(Br)c1O (configuration not stated) What is its recorded CPE inhibition? 18.4
